Please provide measured binding score for the entries that follow.
- testedTarget: T1, Bdf1 bromodomain 2 (GST-tagged, WT) (Saccharomyces cerevisiae (strain ATCC …, UniProt P35817))
- T1 chain: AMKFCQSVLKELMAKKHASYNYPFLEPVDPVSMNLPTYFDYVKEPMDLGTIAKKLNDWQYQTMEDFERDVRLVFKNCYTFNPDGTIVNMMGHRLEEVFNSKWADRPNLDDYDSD
- test: histone peptide array probed with recombinant GST-bromodomain, signal normalised to myc peptide control
Non-standard residues stand in square brackets, D forms with d. No end group written: not given here. pS = N[C@@H](COP(=O)(O)O)C(=O)O
The reply should be a number, written without any unit.

Return reported binding score; argument: ARTKQTARKSTGGKAPRKQ (A R T Kme2 Q T A R K S T G G K A P R K Q) 0.006

Look up binding score for this binder: [pS]GRGKQGGK(Ac)ARAK(Ac)AKSRSS [H2a 1-19] 0.186

Param item = ARTKQTARKSTGGKAPRKQ (A R T K Q T A R K S pT G G K A P R K Q) ; retrieve measured binding score. 0

Record request: binding score value, item ARTKQTARKSTGGKAPRKQ (A R T K Q T A R Kme1 S T G G Kac A P R K Q) 0.0902
